- ASSAY SYSTEM: T1, human IL-11 (human, UniProt P20809 22-199)
- T1 sequence: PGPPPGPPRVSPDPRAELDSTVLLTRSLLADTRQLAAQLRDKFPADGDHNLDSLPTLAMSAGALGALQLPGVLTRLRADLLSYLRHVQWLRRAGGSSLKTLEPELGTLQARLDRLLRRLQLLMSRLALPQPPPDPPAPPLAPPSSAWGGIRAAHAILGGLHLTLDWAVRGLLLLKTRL
- ASSAY METHOD TEXT: cell-based or functional assay
// reported IC50, RGA 1 for each item listed

[
  {
    "BINDER": "TPP-31308 (antibody, IgG4, V domains shown) VH: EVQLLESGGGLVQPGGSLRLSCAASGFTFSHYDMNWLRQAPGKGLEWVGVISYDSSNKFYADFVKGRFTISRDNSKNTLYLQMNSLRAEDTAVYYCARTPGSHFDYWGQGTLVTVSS VL: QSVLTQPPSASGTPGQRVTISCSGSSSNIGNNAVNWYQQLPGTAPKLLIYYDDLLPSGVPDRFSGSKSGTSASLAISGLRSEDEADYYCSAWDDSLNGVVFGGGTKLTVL",
    "IC50, RGA 1": "> 500 nM"
  },
  {
    "BINDER": "TPP-31281 (antibody, IgG4, V domains shown) VH: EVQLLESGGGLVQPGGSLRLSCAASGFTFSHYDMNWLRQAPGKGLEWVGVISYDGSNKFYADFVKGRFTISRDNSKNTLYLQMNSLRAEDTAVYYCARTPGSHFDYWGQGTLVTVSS VL: QSVLTQPPSASGTPGQRVTISCSGSSSNIGNNAVNWYQQLPGTAPKLLIYYNDLLPSGVPDRFSGSKSGTSASLAISGLRSEDEADYYCSAWDDSLNGVVFGGGTKLTVL",
    "IC50, RGA 1": "> 500 nM"
  },
  {
    "BINDER": "TPP-31296 (antibody, IgG4, V domains shown, hIgG4 SPLE, lambda) VH: EVQLLESGGGLVQPGGSLRLSCAASGFTFSHYDMNWLRQAPGKGLEWVGVISYDGSNKFYADSVKGRFTISRDNSKNTLYLQMNSLRAEDTAVYYCARTPGSHFDYWGQGTLVTVSS VL: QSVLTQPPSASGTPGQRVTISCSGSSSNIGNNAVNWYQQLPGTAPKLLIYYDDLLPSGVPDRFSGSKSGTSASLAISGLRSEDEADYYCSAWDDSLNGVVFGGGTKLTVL",
    "IC50, RGA 1": "46 nM"
  },
  {
    "BINDER": "TPP-31284 (antibody, IgG4, V domains shown, hIgG4 SPLE, lambda) VH: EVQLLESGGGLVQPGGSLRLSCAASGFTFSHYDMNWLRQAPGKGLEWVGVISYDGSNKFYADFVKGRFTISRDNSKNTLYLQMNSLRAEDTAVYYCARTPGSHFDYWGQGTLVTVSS VL: QSVLTQPPSASGTPGQRVTISCSGSSSNIGNNAVNWYQQLPGTAPKLLIYYDDLRPSGVPDRFSGSKSGTSASLAISGLRSEDEADYYCSAWDDSLNGVVFGGGTKLTVL",
    "IC50, RGA 1": "101 nM"
  },
  {
    "BINDER": "TPP-31299 (antibody, IgG4, V domains shown) VH: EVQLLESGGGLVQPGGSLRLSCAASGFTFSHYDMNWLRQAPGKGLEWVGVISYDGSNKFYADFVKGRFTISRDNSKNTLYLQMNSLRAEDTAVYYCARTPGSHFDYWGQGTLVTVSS VL: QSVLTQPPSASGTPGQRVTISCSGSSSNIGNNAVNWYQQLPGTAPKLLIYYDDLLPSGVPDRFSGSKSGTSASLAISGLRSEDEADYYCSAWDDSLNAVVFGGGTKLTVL",
    "IC50, RGA 1": "238 nM"
  }
]
